- system_tested: Glycogen synthase kinase-3 beta (Homo sapiens)
- experiment_description: Inhibition of human recombinant GSK3beta
quantity_measured: IC50 (µM)
Write down the numeric answer in µM and omit the unit.

# input Missing value: IC50, Glycogen synthase kinase-3 beta (Homo sapiens), entry `CCN1CCC(NC(=O)c2c(C)noc2C(C)C)CC1` . Fill in?
# output 9.1

###

- system_tested: Cyclin-dependent kinase 9/cyclin T1 (Homo sapiens)
- experiment_description: Inhibition of CDK9/cyclin T1 (unknown origin)
quantity_measured: pIC50
Convention used: pIC50 is expressed as -log10 of the molar concentration.

# input Missing value: pIC50, Cyclin-dependent kinase 9/cyclin T1 (Homo sapiens), entry `COc1cc(CC(=O)Nc2cc(C3CCC3)[nH]n2)cc(OC)c1OC` . Fill in?
# output 5.24
